Just for reference, patent US20160297884A1 is where these values come from.

- Tested target: T1, Human BCMA (human, UniProt Q02223 1-54, limits assumed)
- T1 construct: also called huBCMA; B-cell maturation antigen
- T1 sequence (looked up): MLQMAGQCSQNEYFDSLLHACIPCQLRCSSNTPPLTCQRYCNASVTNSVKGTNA
- Assay protocol: SPR, IgG immobilised, human BCMA analyte
Measurement type: kon (M⁻¹ s⁻¹)
// units = M⁻¹ s⁻¹; emit number, no label

Binder	Readout units	kon
A02_Rd4_0.6nM_C03 (antibody, V domains shown, IgG) VH: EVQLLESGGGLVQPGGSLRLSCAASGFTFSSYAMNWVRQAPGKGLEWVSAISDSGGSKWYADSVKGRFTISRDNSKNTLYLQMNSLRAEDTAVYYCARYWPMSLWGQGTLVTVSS VL: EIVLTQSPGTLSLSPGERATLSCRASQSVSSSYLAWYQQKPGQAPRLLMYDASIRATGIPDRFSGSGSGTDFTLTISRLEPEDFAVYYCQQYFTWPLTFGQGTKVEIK	M⁻¹ s⁻¹	4.27e+06

[ask] Specify kon for P5A2_VHVL (antibody, V domains shown, IgG) VH: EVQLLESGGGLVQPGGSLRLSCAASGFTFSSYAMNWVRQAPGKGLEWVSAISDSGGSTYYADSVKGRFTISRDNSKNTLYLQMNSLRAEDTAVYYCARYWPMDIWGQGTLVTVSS VL: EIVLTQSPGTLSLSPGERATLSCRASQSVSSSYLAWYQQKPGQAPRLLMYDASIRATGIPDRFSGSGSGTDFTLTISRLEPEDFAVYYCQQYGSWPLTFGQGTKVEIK and stop.
[reply] 6.96e+06
